# assay_protocol: Effects of 7-day Ointment Rubbing on Organ Weights
# Type: in vivo, male Sprague-Dawley rats
# test_context: Table 7; 7-day rubbing, 100 mg ointment once daily
Please respond with reported Adrenal weight, per cent of change vs control animals for every item in the list.
One number for each entry, in per cent.

Take a look at these entries with their results.
C[C@@H]1C[C@H]2[C@@H]3CCC4=CC(=O)C=C[C@]4(C)[C@@]3(F)[C@@H](O)C[C@]2(C)[C@@]1(O)C(=O)CO[C@H]1O[C@H](CO)[C@H](O)[C@H](O)[C@H]1O -48.3
C[C@@H]1C[C@H]2[C@@H]3CCC4=CC(=O)C=C[C@]4(C)[C@@]3(F)[C@@H](O)C[C@]2(C)[C@@]1(O)C(=O)CO[C@@H]1O[C@H](CO)[C@H](O)[C@H](O)[C@H]1O -47.1
C[C@@H]1C[C@H]2[C@@H]3CCC4=CC(=O)C=C[C@]4(C)[C@@]3(F)[C@@H](O)C[C@]2(C)[C@@]1(O)C(=O)CO[C@@H]1O[C@H](CO)[C@@H](O)[C@H](O)[C@H]1O -49.6

For the next question, use this molecule.
// recorded Adrenal weight, per cent of change vs control animals for C[C@@H]1C[C@H]2[C@@H]3CCC4=CC(=O)C=C[C@]4(C)[C@@]3(F)[C@@H](O)C[C@]2(C)[C@@]1(O)C(=O)CO[C@H]1O[C@H](CO)[C@@H](O)[C@H](O)[C@@H]1O : -24.4
